- Test system: human GR (MMTV-LUC reporter gene, A549 cells)
- test_method_notes: Trans-Activation Modulation of Glucocorticoid Receptor Assay (GRAMMER), MMTV-LUC reporter in A549 cells
- Format: cell-based
- assay_setup: A549 cells; Emax relative to the activity obtained with 300 nM dexamethasone
Recorded Transactivation A549 Cells GRAMMER Emax by entry

Solved entries:
{"columns": ["molecule", "target_entity", "Transactivation A549 Cells GRAMMER Emax"],
 "data": [
  ["C[C@]12Cc3cnn(-c4cccnc4)c3C=C1CC[C@@H]2CC(O)c1ccccc1 (single isomer, unassigned) [Example 1b]", "human GR (MMTV-LUC reporter gene, A549 cells)", "8.5%"],
  ["COc1ccccc1C(O)C[C@H]1CCC2=Cc3c(cnn3-c3cccnc3)C[C@@]21C (single isomer, unassigned) [Example 2b]", "human GR (MMTV-LUC reporter gene, A549 cells)", "21.5%"],
  ["CC(O)(C[C@H]1CCC2=Cc3c(cnn3-c3cccnc3)C[C@@]21C)c1ccccc1 (single isomer, unassigned) [Example 7b]", "human GR (MMTV-LUC reporter gene, A549 cells)", "20.0%"]
]}

Transactivation A549 Cells GRAMMER Emax recorded for this molecule, COc1cccc(C(O)C[C@H]2CCC3=Cc4c(cnn4-c4cccnc4)C[C@@]32C)c1 (single isomer, unassigned) [Example 4a] , is 47.7%

Transactivation A549 Cells GRAMMER Emax recorded for this molecule, C[C@]12Cc3cnn(-c4cccnc4)c3C=C1CC[C@@H]2CC(O)c1ccccc1 (single isomer, unassigned) [Example 1a] , is 29.7%

Transactivation A549 Cells GRAMMER Emax recorded for this molecule, COc1cccc(C(O)C[C@H]2CCC3=Cc4c(cnn4-c4cccnc4)C[C@@]32C)c1 (single isomer, unassigned) [Example 4b] , is 15.3%

Transactivation A549 Cells GRAMMER Emax recorded for this molecule, CC(O)(C[C@H]1CCC2=Cc3c(cnn3-c3cccnc3)C[C@@]21C)c1ccccc1 (single isomer, unassigned) [Example 7a] , is 53.1%

Transactivation A549 Cells GRAMMER Emax recorded for this molecule, COc1ccccc1C(O)C[C@H]1CCC2=Cc3c(cnn3-c3cccnc3)C[C@@]21C (single isomer, unassigned) [Example 2a] , is 68.5%

Transactivation A549 Cells GRAMMER Emax recorded for this molecule, C[C@]12Cc3cnn(-c4cccnc4)c3C=C1CC[C@@H]2CC(O)c1ccccn1 (single isomer, unassigned) [Example 6b] , is 2.2%

----------
- Tested on: human GR (TNFα promoter β-lactamase reporter, U937 cells)
- test_method_notes: Transrepression Assay (GITAR), TNFα-β-lactamase reporter in U937 cells
- Assay type: cell-based
- assay_setup: U937 cells, TNFα-β-lactamase reporter, PMA/LPS stimulated; read-out: Transrepression U937 Cells GITAR IP (inflection point)
experimental_endpoint: pEC50
The value called pEC50 is obtained by taking minus log10 of the concentration in mol/L.

Solved entries:
{"columns": ["compound", "endpoint_result"],
 "data": [
  ["C[C@]12Cc3cnn(-c4cccnc4)c3C=C1CC[C@@H]2CC(O)c1ccccn1 (single isomer, unassigned) [Example 6b]", 5.86],
  ["CC(O)(C[C@H]1CCC2=Cc3c(cnn3-c3cccnc3)C[C@@]21C)c1ccccc1 (single isomer, unassigned) [Example 7b]", 6.41],
  ["C[C@]12Cc3cnn(-c4cccnc4)c3C=C1CC[C@@H]2CC(O)c1ccccn1 (single isomer, unassigned) [Example 6a]", 6.25],
  ["C[C@]12Cc3cnn(-c4cccnc4)c3C=C1CC[C@@H]2CC(O)c1ccccc1 (single isomer, unassigned) [Example 1b]", 5.77]
]}

pEC50 recorded for this compound, COc1ccccc1C(O)C[C@H]1CCC2=Cc3c(cnn3-c3cccnc3)C[C@@]21C (single isomer, unassigned) [Example 2a] , is 6.64

pEC50 recorded for this compound, COc1cccc(C(O)C[C@H]2CCC3=Cc4c(cnn4-c4cccnc4)C[C@@]32C)c1 (single isomer, unassigned) [Example 4b] , is 6.26
